biological target: hTRPV6 (Homo sapiens, UniProt Q9H1D0); assay type: cell-based; conditions: (1.37 × pIC50)/HAC, hTRPV6 IC50
Sequence (Q9H1D0 whole entry): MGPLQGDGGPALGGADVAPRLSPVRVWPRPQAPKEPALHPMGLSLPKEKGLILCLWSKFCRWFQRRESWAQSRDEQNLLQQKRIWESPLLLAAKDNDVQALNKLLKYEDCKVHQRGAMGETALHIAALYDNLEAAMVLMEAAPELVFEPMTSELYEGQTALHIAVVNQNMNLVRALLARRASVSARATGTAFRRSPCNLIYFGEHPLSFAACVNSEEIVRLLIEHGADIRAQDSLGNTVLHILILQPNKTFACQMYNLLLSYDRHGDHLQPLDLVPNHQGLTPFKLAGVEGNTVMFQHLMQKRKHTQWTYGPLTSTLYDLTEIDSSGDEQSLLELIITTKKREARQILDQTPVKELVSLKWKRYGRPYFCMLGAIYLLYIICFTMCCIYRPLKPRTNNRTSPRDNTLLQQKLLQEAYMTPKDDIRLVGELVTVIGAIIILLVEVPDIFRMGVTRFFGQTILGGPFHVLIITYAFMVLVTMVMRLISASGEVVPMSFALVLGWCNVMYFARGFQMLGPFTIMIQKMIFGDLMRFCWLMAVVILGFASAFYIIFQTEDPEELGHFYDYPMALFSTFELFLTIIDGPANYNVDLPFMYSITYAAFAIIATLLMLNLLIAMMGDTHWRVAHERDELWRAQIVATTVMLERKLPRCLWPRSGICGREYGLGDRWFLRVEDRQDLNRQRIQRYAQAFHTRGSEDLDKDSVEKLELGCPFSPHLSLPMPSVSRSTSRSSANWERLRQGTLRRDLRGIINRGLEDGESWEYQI
METRIC: LE (ligand efficiency)
Give bare numbers.

Examples from the recorded data:
[[record]]
molecule = "COc1cc(CN2CCN([C@H]3CC[C@@H](c4ccccc4)CC3)CC2)ccc1O [compound 9]"
metric = "LE (ligand efficiency)"
endpoint_result = 0.28

[[record]]
molecule = "O=c1ccc(CN2CCN([C@H]3CC[C@@H](c4ccccc4C(F)(F)F)CC3)CC2)c[nH]1 [compound 32]"
metric = "LE (ligand efficiency)"
endpoint_result = 0.28

[[record]]
molecule = "COc1cc(C(=O)N2CCN([C@H]3CC[C@@H](C(C)(C)C)CC3)CC2)ccc1O [compound 13]"
metric = "LE (ligand efficiency)"
endpoint_result = 0.29

[[record]]
molecule = "COc1cc(CN2CCN([C@H]3CC[C@@H](C(C)(C)C)CC3)CC2)ccc1O [compound 8]"
metric = "LE (ligand efficiency)"
endpoint_result = 0.30

[[record]]
molecule = "COc1cc(C(=O)N2CCN([C@H]3CC[C@@H](c4ccccc4)CC3)CC2)ccc1O [compound 14]"
metric = "LE (ligand efficiency)"
endpoint_result = 0.30

[[record]]
molecule = "O=c1ccc(CN2CCN([C@H]3CC[C@@](O)(c4cccc(C(F)(F)F)c4)CC3)CC2)c[nH]1 [compound 39]"
metric = "LE (ligand efficiency)"
endpoint_result = 0.31

[[record]]
molecule = "O=c1ccc(CN2CCN([C@H]3CC[C@@H](c4cccc(C(F)(F)F)c4)CC3)CC2)c[nH]1 [compound 31]"
metric = "LE (ligand efficiency)"
endpoint_result = 0.33


Shifting focus to the molecule that follows.
Input line: Which value of LE (ligand efficiency) has been reported for O=C(c1ccc(=O)[nH]c1)N1CCN([C@H]2CC[C@@H](c3ccccc3)CC2)CC1 [compound 20] in the records?
Output line: 0.32
